Reference source: PubChem BioAssay

# target_desc: Beta-2 adrenergic receptor (Homo sapiens) (UniProt P07550)
# Sequence (P07550 whole entry, looked up): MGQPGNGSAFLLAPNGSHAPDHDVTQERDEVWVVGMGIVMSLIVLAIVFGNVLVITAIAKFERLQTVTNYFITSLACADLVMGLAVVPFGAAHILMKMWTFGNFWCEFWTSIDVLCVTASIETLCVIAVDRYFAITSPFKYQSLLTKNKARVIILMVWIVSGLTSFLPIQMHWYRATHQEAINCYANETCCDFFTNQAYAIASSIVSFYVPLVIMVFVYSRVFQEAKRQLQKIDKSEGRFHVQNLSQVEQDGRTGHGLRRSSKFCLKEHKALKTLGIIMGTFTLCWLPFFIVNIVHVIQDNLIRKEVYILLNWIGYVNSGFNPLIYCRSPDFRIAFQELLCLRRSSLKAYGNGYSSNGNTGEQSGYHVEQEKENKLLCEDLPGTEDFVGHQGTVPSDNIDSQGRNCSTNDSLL
# measurement_notes: agonist-induced loss of surface beta2AR – cell-based, FAP fluorogen, flow cytometry, validation set, pilot screen (AID 504459);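 further: agonist-driven loss of surface beta2AR via internalization measured by FAP dye flow cytometry; reference of the scale not given here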
# protocol_conditions: Am2.2-beta2AR cells, at 10 µM, active compounds read high
endpoint_label: response (%)
The answer is to be given in %; state only the numeric part.

compound	target_desc	response [%]
O=C(c1ccco1)N(CCC(c1ccccc1)c1ccco1)Cc1ccco1 (centres undefined)	Beta-2 adrenergic receptor (Homo sapiens) (UniProt P07550)	6.76

Now look at this one.
Ask: // fetch response given entry CN1CCN(C2=Nc3ccccc3Oc3ccc(Cl)cc32)CC1
Reply: -6.79
